- Method summary: Oral bioavailability in rat at 1 mg/kg
- Type: ADME, organism-based
- Test settings: in vivo
Measured property: bioavailability (%)
Return type: number; implicit unit %.

[[record]]
smiles_repr = "C[C@@H]1Cc2c(ccc3[nH]ncc23)[C@@H](c2ccc(NC3CN(CCCF)C3)cn2)N1CC(F)(F)F"
measured_property = "bioavailability"
observed_result = 19


API: the following record is the query input.
Data request: What does the record list as bioavailability for COc1cc(NC2CN(CCCF)C2)ccc1[C@@H]1c2ccc3[nH]ncc3c2C[C@@H](C)N1CC1(F)CC1 ?
Data returned: 3

----------
- Method summary: Half-life in mouse at 2 mg/kg, iv or 5 mg/kg, po
- Assay type: ADME, organism-based
- Test settings: in vivo
Measured property: half-life
# output: numeric value plus its unit

Data request: Reported half-life for C[C@@H]1Cc2c(ccc3[nH]ncc23)[C@@H](c2ccc(NC3CN(CCCF)C3)cn2)N1CC(F)(F)F [CAMIZESTRANT] : what is it?
Data returned: 5.1 h
